Provenance of the data: PubChem BioAssay AID228

test system: BDF1 mice, Friend leukemia sc, tumor weight T/C; test: NCI In Vivo Anticancer Drug Screen. Data for tumor model Friend Virus Leukemia (Solid) (subcutaneous) in B6D2F1 (BDF1) mice; settings: endpoint: mean tumor weight; dose: 250.0 mg/kg/injection; schedule: Q01DX011 (ip); vehicle: carboxymethylcellulose (CMC); higher = larger tumour
Results filed as inconclusive are left out.
Examples of compounds with documented T/C follow.

| compound | T/C |
| --- | --- |
| CNC(C)=O | 104 % of control |
| O=c1[nH]c(=O)n(C2CC(O)C(CO)O2)cc1Br (stereo not drawn) | 52 % of control |
| COc1cc(OC)c(OC)cc1/C=C\c1ccnc2ccccc12 | 64 % of control |
| C[C@H]1C(=O)O[C@@H]2CCN3CC=C(COC(=O)[C@](C)(O)[C@@]1(C)O)[C@H]23 | 38 % of control |
| CNC=O | 84 % of control |
| NC(Cc1cccs1)C(=O)O (stereo not drawn) | 112 % of control |
| O=[N+]([O-])c1ccccc1CSc1ncnc2nc[nH]c12 | 7 % of control |
| Nc1nc(SCc2ccccc2)c2ncn(C3CCCC3)c2n1 | 69 % of control |
| O=CCC(O)C(O)C(O)CO (stereo not drawn) | 83 % of control |
| NC(C=O)C(O)C(O)C(O)CO (stereo not drawn) | 168 % of control |
| OCC1OC(n2cnc3c(Cl)ncnc32)C(O)C1O (stereo not drawn) | 109 % of control |
| OCCc1ccccc1 | 57 % of control |
| O=C(Nc1ccc(C2=NCCN2)cc1)c1cc(Cl)cc(C(=O)Nc2ccc(C3=NCCN3)cc2)c1 | 81 % of control |
| CC1(C)CC(C)(c2ccccc2)c2ccccc21 (stereo not drawn) | 67 % of control |
| CC(C)CCS(=O)(=O)OCCCCOS(=O)(=O)CCC(C)C | 73 % of control |
| NC(CO)C(=O)O (stereo not drawn) | 108 % of control |
| c1ccc2c(c1)ccc1cc3c(ccc4ccccc43)cc12 | 52 % of control |
| CCCCSc1nc(N)nc2c1ncn2CC(C)CC (stereo not drawn) | 75 % of control |

----------
test system: BDF1 mice, Friend leukemia sc, tumor weight T/C; assay: NCI In Vivo Anticancer Drug Screen. Data for tumor model Friend Virus Leukemia (Solid) (subcutaneous) in B6D2F1 (BDF1) mice; conditions: endpoint: mean tumor weight; dose: 15.0 mg/kg/injection; schedule: Q01DX011 (ip); vehicle: saline; higher = larger tumour
Records with an inconclusive call do not appear.
The reader will find reported T/C values listed item by item below.
measured-property: T/C

| compound | measured-property | recorded-value |
| --- | --- | --- |
| O=NN(CCCl)C(=O)NCCCl | T/C | 51 % of control |
| CN=C(N)c1ccc(N=C(N)c2ccc(C(N)=Nc3ccc(C(N)=NC)cc3)cc2)cc1 | T/C | 165 % of control |
| CN(C)C(=S)N=Nc1c(O)[nH]c2ccccc12 | T/C | 76 % of control |
| CSc1ncnc2c1ncn2C1OC(CO)C(O)C1O (configuration not stated) | T/C | 112 % of control |
| Cn1c(O)c(N=NC(N)=S)c2ccccc21 | T/C | 110 % of control |
| C=CC(=O)NCNC(=O)C=C | T/C | 89 % of control |
| CN(N=O)C(N)=O | T/C | 20 % of control |

----------
test system: BDF1 mice, Friend leukemia sc, tumor weight T/C; assay: NCI In Vivo Anticancer Drug Screen. Data for tumor model Friend Virus Leukemia (Solid) (subcutaneous) in B6D2F1 (BDF1) mice; conditions: endpoint: mean tumor weight; dose: 125.0 mg/kg/injection; schedule: Q01DX011 (ip); vehicle: carboxymethylcellulose (CMC); higher = larger tumour
Inconclusive results are not listed.
measured-property: T/C

| molecule | measured-property | recorded-value |
| --- | --- | --- |
| O=C(O)C(=O)c1ccc(-c2ccccc2)cc1 | T/C | 45 % of control |
| CC1(C)CC(C)(c2ccccc2)c2ccccc21 (stereo unspecified) | T/C | 70 % of control |
| NC(C=O)C(O)C(O)C(O)CO (stereo unspecified) | T/C | 102 % of control |
| O=C(Nc1ccc(C2=NCCN2)cc1)c1ccc(C(=O)Nc2ccc(C3=NCCN3)cc2)c(NC(=O)c2ccc(C(=O)Nc3cc(C(=O)Nc4ccc(C5=NCCN5)cc4)ccc3C(=O)Nc3ccc(C4=NCCN4)cc3)cc2)c1 | T/C | 161 % of control |
| Nc1ccc2ccccc2c1N=Nc1ccccc1 | T/C | 58 % of control |
| Nc1ccc(OC(=O)Oc2ccc(N)cc2)cc1 | T/C | 28 % of control |
| C[N+](C)(C)c1ncnc2nc[nH]c12 | T/C | 47 % of control |
| OCC1OC(n2cnc3c(=S)nc[nH]c32)C(O)C1O (stereo unspecified) | T/C | 1 % of control |
| O=c1[nH]cnc2n[nH]nc12 | T/C | 55 % of control |
| OCC1OC(n2cnc3c(Cl)ncnc32)C(O)C1O (stereo unspecified) | T/C | 105 % of control |
| O=C(Nc1ccc(C2=NCCN2)cc1)c1cc(Cl)cc(C(=O)Nc2ccc(C3=NCCN3)cc2)c1 | T/C | 111 % of control |

----------
# T/C per record follows
tested on: BDF1 mice, Friend leukemia sc, tumor weight T/C; experiment: NCI In Vivo Anticancer Drug Screen. Data for tumor model Friend Virus Leukemia (Solid) (subcutaneous) in B6D2F1 (BDF1) mice; details: endpoint: mean tumor weight; dose: 31.0 mg/kg/injection; schedule: Q01DX011 (ip); vehicle: carboxymethylcellulose (CMC); higher = larger tumour
Results filed as inconclusive are left out.

| smiles | T/C |
| --- | --- |
| c1ccc2c(c1)ccc1cc3c(ccc4ccccc43)cc12 | 86 % of control |
| C[C@H]1C(=O)O[C@@H]2CCN3CC=C(COC(=O)[C@](C)(O)[C@@]1(C)O)[C@H]23 | 95 % of control |
| Nc1ccc(OC(=O)Oc2ccc(N)cc2)cc1 | 105 % of control |
| N#CCSc1ncnc2nc[nH]c12 | 32 % of control |
| C[N+](C)(C)c1ncnc2nc[nH]c12 | 106 % of control |
| O=[N+]([O-])c1ccccc1CSc1ncnc2nc[nH]c12 | 111 % of control |

----------
Tested on: BDF1 mice, Friend leukemia sc, tumor weight T/C
Test: NCI In Vivo Anticancer Drug Screen. Data for tumor model Friend Virus Leukemia (Solid) (subcutaneous) in B6D2F1 (BDF1) mice
Conditions: endpoint: mean tumor weight; dose: 250.0 mg/kg/injection; schedule: Q01DX011 (ip); vehicle: saline; higher = larger tumour
Description: The antitumor activity of compounds was measured in mice bearing transplantable tumors. Survival or tumor size were measured and the results are expressed as the measurement made in the treated group (T) divided by the measurement made in the vehicle treated control group (C). The tumor model used in this assay is Friend Virus Leukemia (Solid) (subcutaneous) in B6D2F1 (BDF1) mice
Records with an inconclusive call do not appear.

| molecule | T/C |
| --- | --- |
| COC(=S)SCN(CSC(=S)OC)c1ccccc1Cl | 107 % of control |
| CS(=O)(=O)OCC(=O)NCCNC(=O)COS(C)(=O)=O | 60 % of control |
| CN1CCC23c4c5ccc(O)c4OC2C(O)C=CC3C1C5 (stereo not drawn) | 118 % of control |
| CN(C)N=Nc1n[nH]nc1C(N)=O | 75 % of control |
| O=C(NO)c1ccncc1 | 79 % of control |
| CCOC(=O)NP(=O)(N1CC1(C)C)N1CC1(C)C (stereo not drawn) | 65 % of control |
| O=CN(O)CC(=O)O | 196 % of control |
| CC(=O)N(C)C | 113 % of control |

----------
test system: BDF1 mice, Friend leukemia sc, tumor weight T/C; assay: NCI In Vivo Anticancer Drug Screen. Data for tumor model Friend Virus Leukemia (Solid) (subcutaneous) in B6D2F1 (BDF1) mice; conditions: endpoint: mean tumor weight; dose: 125.0 mg/kg/injection; schedule: Q01DX011 (ip); vehicle: carboxymethylcellulose (CMC); higher = larger tumour
Records with an inconclusive call do not appear.
Entries annotated with measured T/C
measured-property: T/C

| compound | recorded-value |
| --- | --- |
| N#CCSc1nc(N)nc2nc[nH]c12 | 31 % of control |
| O=c1[nH]c(=O)n(C2CC(O)C(CO)O2)cc1Br (configuration not stated) | 72 % of control |
| CCOC(N)=O | 67 % of control |
| CCOc1ccc2nc(S(N)(=O)=O)sc2c1 | 89 % of control |
| OCCc1ccccc1 | 63 % of control |
| CC(C)CCS(=O)(=O)OCCCCOS(=O)(=O)CCC(C)C | 97 % of control |
| CC(Cl)CN(Cc1cc(O)c(CN(CC(C)Cl)CC(C)Cl)cc1O)CC(C)Cl (configuration not stated) | 44 % of control |
| O=CCC(O)C(O)C(O)CO (configuration not stated) | 89 % of control |
| O=C(Nc1ccc(C2=NCCN2)cc1)c1ccc(C(=O)Nc2ccc(C3=NCCN3)cc2)cc1 | 5 % of control |
| COc1cc(OC)c(OC)cc1/C=C\c1ccnc2ccccc12 | 60 % of control |
| C[C@H]1C(=O)O[C@@H]2CCN3CC=C(COC(=O)[C@](C)(O)[C@@]1(C)O)[C@H]23 | 66 % of control |
| CCCCSc1nc(N)nc2c1ncn2CC(C)CC (configuration not stated) | 68 % of control |
